# TGT: menin-MLL interaction (Homo sapiens, UniProt O00255)
# Sequence (O00255 whole entry): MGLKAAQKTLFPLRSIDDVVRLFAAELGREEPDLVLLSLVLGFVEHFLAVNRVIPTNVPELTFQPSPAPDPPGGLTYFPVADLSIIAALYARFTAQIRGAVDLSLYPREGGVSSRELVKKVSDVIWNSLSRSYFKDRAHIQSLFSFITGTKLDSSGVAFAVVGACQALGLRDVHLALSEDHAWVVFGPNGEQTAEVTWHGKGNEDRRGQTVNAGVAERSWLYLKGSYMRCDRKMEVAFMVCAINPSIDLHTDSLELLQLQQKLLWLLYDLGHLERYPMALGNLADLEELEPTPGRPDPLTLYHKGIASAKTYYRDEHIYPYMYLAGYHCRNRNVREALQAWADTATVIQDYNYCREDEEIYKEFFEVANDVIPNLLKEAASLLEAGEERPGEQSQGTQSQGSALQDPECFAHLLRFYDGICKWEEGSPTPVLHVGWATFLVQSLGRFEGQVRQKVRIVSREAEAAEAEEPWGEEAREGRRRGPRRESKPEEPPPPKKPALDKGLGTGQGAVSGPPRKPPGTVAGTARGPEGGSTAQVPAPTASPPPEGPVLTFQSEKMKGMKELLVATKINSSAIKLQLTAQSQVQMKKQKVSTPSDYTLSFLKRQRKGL
# PROTOCOL: Fluorescence polarization (FP) competition assay
# TEST SETTINGS: menin / MLL 4-43 peptide
MEASURED PARAMETER: IC50

Look over these answered cases.
{"COMPOUND": "Cc1c(CN2CCC(Nc3ncnc4sc(CC(F)(F)F)cc34)CC2)ccc2c1cc(C#N)n2CCN1CC(C)N(S(C)(=O)=O)CC1C (stereo not shown)", "IC50": "250 to 1000 nM"}
{"COMPOUND": "Cc1nc(NC2CCN(Cc3ccc4c(cc(C#N)n4C[C@@H](C)N4CCN(S(C)(=O)=O)CC4)c3C)CC2)c2cc(CC(F)(F)F)sc2n1", "IC50": "250 to 1000 nM"}
{"COMPOUND": "CCS(=O)(=O)NC12CC(Cn3c(C#N)cc4c(C)c(CN5CCC(Nc6ncnc7sc(CC(F)(F)F)cc67)CC5)ccc43)(C1)C2", "IC50": "250 to 1000 nM"}

Batch request: IC50 for each of the following compounds.
1. Cc1c(CN2CCC(Nc3ncnc4sc(CC(F)(F)F)cc34)CC2)ccc2c1cc(C#N)n2C[C@H](C)N1CCC(NP(C)(C)=O)CC1
2. Cc1c(CN2CCC3(CCN(c4ncnc5sc(CC(F)(F)F)cc45)C3)C2)ccc2[nH]c(C#N)cc12 (stereo not shown) [III-30a]
3. Cc1c(CN2CCC(Nc3ncnc4sc(CC(F)(F)F)cc34)CC2)ccc2c1cc(C#N)n2CC(C)N1CCN(S(C)(=O)=O)C(C(=O)O)C1 (stereo not shown)
4. Cc1c(CN2CCC(Nc3ncnc4sc(CC(F)(F)F)cc34)CC2)ccc2c1cc(C#N)n2CCC1CCN(S(C)(=O)=O)C(C)C1 (stereo not shown)
5. Cc1c(CN2CCC(Nc3ncnc4sc(CC(F)(F)F)cc34)CC2)ccc2c1cc(C#N)n2CCN1CCC2(CCN(S(C)(=O)=O)C2)C1 (stereo not shown)
6. CNc1nc(NC2CCN(Cc3ccc4c(cc(C#N)n4CCN4CCN(S(C)(=O)=O)[C@H](C#N)C4)c3C)CC2)c2cc(CC(F)(F)F)sc2n1
7. Cc1c(CN2CCC(Nc3ncnc4sc(CC(F)(F)F)cc34)CC2)ccc2c1cc(C#N)n2CCN1CC2(C1)CN(S(C)(=O)=O)C2

Result:
1: 250 to 1000 nM; 2: 50 to 250 nM; 3: 250 to 1000 nM; 4: 250 to 1000 nM; 5: 250 to 1000 nM; 6: < 50 nM; 7: 250 to 1000 nM

Batch request: IC50 for each of the following compounds.
1. CS(=O)(=O)Nc1ccc(CN2CCC3(CCN(c4ncnc5sc(CC(F)(F)F)cc45)C3)C2)cc1 (stereo not shown)
2. CS(=O)(=O)N[C@H]1CC[C@H](CN2CCC3(CCN(c4ncnc5sc(CC(F)(F)F)cc45)C3)C2)CC1 (stereo partly shown)
3. Cc1c(CN2CCC(Nc3ncnc4sc(CC(F)(F)F)cc34)CC2)ccc2c1cc(C#N)n2CCN1CCN(S(C)(=O)=O)CC1C (stereo not shown)

Result:
1: 50 to 250 nM; 2: 250 to 1000 nM; 3: 250 to 1000 nM
